FYI, the data here is from paper PMC5349851.

System under test: ATF5;CEBPG (Homo sapiens;Homo sapiens, UniProt Q9Y2D1;P53567 199-275;52-130, |)
Sequence 1: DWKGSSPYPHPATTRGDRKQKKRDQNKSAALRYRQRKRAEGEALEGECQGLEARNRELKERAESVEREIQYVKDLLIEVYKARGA
Sequence 2: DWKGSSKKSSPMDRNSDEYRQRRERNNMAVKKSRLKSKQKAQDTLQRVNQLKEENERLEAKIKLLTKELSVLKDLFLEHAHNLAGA
Method: SELEX-seq (CSI, HT-SELEX, round 3); SELEX-seq: 1x PBS (10 mM phosphate, 137 mM NaCl, 2.7 mM KCl) pH 7.6, 2.5 mM DTT, 50 ng/ul poly dI-dC, 0.1% BSA, 50 nM biotinylated bZIP (1:3 with partner for heterodimers), 100 nM library, room temperature, 1 h, 3 rounds; high values mean tight binding
Condition notes: protein: recombinant;recombinant; copies: 1;1; dsDNA, one strand shown
Parameter: binding signal

The measured binding signal associated with `ATGACGTAAT` reads 0.502 relative CSI intensity (max = 1)

GET /value?item= `ATGACGCAAT` &field=binding signal returns 0.902 relative CSI intensity (max = 1)

The reported binding signal of the sequence `ATGACGTCAT` was 0.529 relative CSI intensity (max = 1)

# binding signal of `ATGACGGAAT` = 0.0428 relative CSI intensity (max = 1)

---

System under test: MAFB;ATF4 (Homo sapiens;Homo sapiens, UniProt Q9Y5Q3;P18848 212-305;269-346, |)
Sequence (Q9Y5Q3 other isoform, or with tags, fused parts or gaps |, chain 1 of 2): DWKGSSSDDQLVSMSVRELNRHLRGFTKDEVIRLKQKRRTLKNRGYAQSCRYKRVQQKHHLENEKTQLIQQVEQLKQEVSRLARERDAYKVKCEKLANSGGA
Sequence (P18848 other isoform, or with tags, fused parts or gaps |, chain 2 of 2): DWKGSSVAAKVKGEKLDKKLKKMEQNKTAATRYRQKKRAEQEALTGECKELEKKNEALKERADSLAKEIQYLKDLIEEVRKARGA
Method: SELEX-seq (CSI, HT-SELEX, round 3); SELEX-seq: 1x PBS (10 mM phosphate, 137 mM NaCl, 2.7 mM KCl) pH 7.6, 2.5 mM DTT, 50 ng/ul poly dI-dC, 0.1% BSA, 50 nM biotinylated bZIP (1:3 with partner for heterodimers), 100 nM library, room temperature, 1 h, 3 rounds; high values mean tight binding
Condition notes: protein: recombinant;recombinant; copies: 1;1; dsDNA, one strand shown
Parameter: binding signal

For `ATGACGCAAT` the sequence record lists binding signal as 0.0526 relative CSI intensity (max = 1)

Consider `ATGATGCAAT` . Its measured binding signal is 0.0202 relative CSI intensity (max = 1)

For `ATGACGTAAT` the sequence record lists binding signal as 0.108 relative CSI intensity (max = 1)

GET /value?item= `CCTGACGTCA` &field=binding signal returns 0.182 relative CSI intensity (max = 1)

---

For each record, write down the corresponding binding signal.
System under test: JUNB;NFE2L1 (Homo sapiens;Homo sapiens, UniProt P17275;Q14494 259-332;609-725, |)
Sequence (Q14494 other isoform, or with tags, fused parts or gaps |): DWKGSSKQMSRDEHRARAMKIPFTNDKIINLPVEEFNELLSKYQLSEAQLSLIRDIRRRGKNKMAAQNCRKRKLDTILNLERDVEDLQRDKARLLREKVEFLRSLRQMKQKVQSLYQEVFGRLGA
Method: SELEX-seq (CSI, HT-SELEX, round 3); SELEX-seq: 1x PBS (10 mM phosphate, 137 mM NaCl, 2.7 mM KCl) pH 7.6, 2.5 mM DTT, 50 ng/ul poly dI-dC, 0.1% BSA, 50 nM biotinylated bZIP (1:3 with partner for heterodimers), 100 nM library, room temperature, 1 h, 3 rounds; high values mean tight binding
Condition notes: protein: recombinant;recombinant; copies: 1;1; dsDNA, one strand shown

Field binding signal (JUNB;NFE2L1 (Homo sapiens;Homo sapiens, UniProt P17275;Q14494 259-332;609-725, |)), entry `ATGATGCAAT` : 0.0453 relative CSI intensity (max = 1)

Entry `ATGACGGAAT` , tested on JUNB;NFE2L1 (Homo sapiens;Homo sapiens, UniProt P17275;Q14494 259-332;609-725, |), has a reported binding signal of 0.0118 relative CSI intensity (max = 1)

Entry `CCTGACGTCA` , JUNB;NFE2L1 (Homo sapiens;Homo sapiens, UniProt P17275;Q14494 259-332;609-725, |) data, binding signal value: 0.0112 relative CSI intensity (max = 1)

Record `ATGACGTCAT` / JUNB;NFE2L1 (Homo sapiens;Homo sapiens, UniProt P17275;Q14494 259-332;609-725, |), binding signal recorded as 1 relative CSI intensity (max = 1)

Given the sequence `ATGACGCAAT` and test system JUNB;NFE2L1 (Homo sapiens;Homo sapiens, UniProt P17275;Q14494 259-332;609-725, |), the measured binding signal is 0.169 relative CSI intensity (max = 1)

---

For each of the sequences below, state its binding signal.
System under test: FOS;CEBPG (Homo sapiens;Homo sapiens, UniProt P01100;P53567 128-201;52-130, |)
Sequence (P01100 other isoform, or with tags, fused parts or gaps |): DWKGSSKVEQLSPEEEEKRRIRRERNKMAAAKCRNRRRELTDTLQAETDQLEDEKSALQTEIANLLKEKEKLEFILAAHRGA
Method: SELEX-seq (CSI, HT-SELEX, round 3); SELEX-seq: 1x PBS (10 mM phosphate, 137 mM NaCl, 2.7 mM KCl) pH 7.6, 2.5 mM DTT, 50 ng/ul poly dI-dC, 0.1% BSA, 50 nM biotinylated bZIP (1:3 with partner for heterodimers), 100 nM library, room temperature, 1 h, 3 rounds; high values mean tight binding
Condition notes: protein: recombinant;recombinant; copies: 1;1; dsDNA, one strand shown

Per the records, this sequence ( `CCTGACGTCA` ) has binding signal equal to 0.0189 relative CSI intensity (max = 1)

The recorded binding signal for `ATGACGGAAT` is 0.0215 relative CSI intensity (max = 1)

Lookup result for `ATGACGTCAT` ; measured binding signal: 0.508 relative CSI intensity (max = 1)

Measured binding signal of `ATGACGTAAT` : 0.482 relative CSI intensity (max = 1)

---

System under test: BATF2;ATF4 (Homo sapiens;Homo sapiens, UniProt Q8N1L9;P18848 8-85;269-346, |)
Sequence (Q8N1L9 other isoform, or with tags, fused parts or gaps |, chain 1 of 2): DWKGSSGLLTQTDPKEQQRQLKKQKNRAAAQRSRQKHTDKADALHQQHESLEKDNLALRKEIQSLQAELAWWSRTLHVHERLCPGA
Sequence (P18848 other isoform, or with tags, fused parts or gaps |, chain 2 of 2): as the sequence (P18848 other isoform, or with tags, fused parts or gaps |, chain 2 of 2) above
Method: SELEX-seq (CSI, HT-SELEX, round 3); SELEX-seq: 1x PBS (10 mM phosphate, 137 mM NaCl, 2.7 mM KCl) pH 7.6, 2.5 mM DTT, 50 ng/ul poly dI-dC, 0.1% BSA, 50 nM biotinylated bZIP (1:3 with partner for heterodimers), 100 nM library, room temperature, 1 h, 3 rounds; high values mean tight binding
Condition notes: protein: recombinant;recombinant; copies: 1;1; dsDNA, one strand shown
Could you please report measured binding signal for the items listed next?

// field: binding signal; key: `ATGATGCAAT` ; value = 0.0322 relative CSI intensity (max = 1)

Measured binding signal of `ATGACGTAAT` : 0.119 relative CSI intensity (max = 1)

Sure, the documented binding signal for `ATGACGCAAT` is 0.0339 relative CSI intensity (max = 1)

Reported binding signal ( `CCTGACGTCA` ) = 0.0186 relative CSI intensity (max = 1)

---

System under test: JUNB;CREBZF (Homo sapiens;Homo sapiens, UniProt P17275;Q9NS37 259-332;195-272, |)
Sequence 1: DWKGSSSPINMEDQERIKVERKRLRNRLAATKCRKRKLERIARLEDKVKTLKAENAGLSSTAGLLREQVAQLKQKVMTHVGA
Sequence 2: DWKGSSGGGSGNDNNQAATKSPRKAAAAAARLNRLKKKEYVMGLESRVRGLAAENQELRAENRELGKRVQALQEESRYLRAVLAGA
Method: SELEX-seq (CSI, HT-SELEX, round 3); SELEX-seq: 1x PBS (10 mM phosphate, 137 mM NaCl, 2.7 mM KCl) pH 7.6, 2.5 mM DTT, 50 ng/ul poly dI-dC, 0.1% BSA, 50 nM biotinylated bZIP (1:3 with partner for heterodimers), 100 nM library, room temperature, 1 h, 3 rounds; high values mean tight binding
Condition notes: protein: recombinant;recombinant; copies: 1;1; dsDNA, one strand shown
Parameter: binding signal

Notebook: `ATGACGCAAT` , binding signal read as 0.0122 relative CSI intensity (max = 1)

// sample `ATGACGTCAT` , its binding signal was 1 relative CSI intensity (max = 1)

GET /value?item= `ATGACGTAAT` &field=binding signal returns 0.0382 relative CSI intensity (max = 1)

Data point: `ATGACGGAAT` ; binding signal = 0.00176 relative CSI intensity (max = 1)

---

Kindly state binding signal for each of the entries shown.
System under test: JUN;JUN (Homo sapiens;Homo sapiens, UniProt P05412;P05412 243-316;243-316, |)
Sequence (P05412 other isoform, or with tags, fused parts or gaps |, chain 1 of 2): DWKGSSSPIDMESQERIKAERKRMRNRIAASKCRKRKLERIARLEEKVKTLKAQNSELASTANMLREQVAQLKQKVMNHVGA
Sequence (P05412 other isoform, or with tags, fused parts or gaps |, chain 2 of 2): as the sequence (P05412 other isoform, or with tags, fused parts or gaps |, chain 1 of 2) above
Method: SELEX-seq (CSI, HT-SELEX, round 3); SELEX-seq: 1x PBS (10 mM phosphate, 137 mM NaCl, 2.7 mM KCl) pH 7.6, 2.5 mM DTT, 50 ng/ul poly dI-dC, 0.1% BSA, 50 nM biotinylated bZIP (1:3 with partner for heterodimers), 100 nM library, room temperature, 1 h, 3 rounds; high values mean tight binding
Condition notes: protein: recombinant;recombinant; copies: 1;1; dsDNA, one strand shown

Note to self: binding signal recorded for `ATGACGCAAT` was 0.0387 relative CSI intensity (max = 1)

Lab book: binding signal of `ATGACGTAAT` noted as 0.091 relative CSI intensity (max = 1)

get_value(item= `ATGATGCAAT` , readout=binding signal) returns 0.00263 relative CSI intensity (max = 1)

binding signal reading for `ATGACGTCAT` : 1 relative CSI intensity (max = 1)

Record `ATGACGGAAT` . Reported binding signal: 0.0116 relative CSI intensity (max = 1)
